These entries and their values trace back to patent US12692524B2.

test: In vivo screening in E. coli #1363/#1730 with lactose as acceptor, sialyllactose identified by TLC; type: cell-based, Escherichia coli BL21(DE3); conditions: 1.5 mM lactose, 72 to 96 hours, qualitative via TLC
measured attribute: Production of sialyllactose in-vivo

QUERY: Production of sialyllactose in-vivo for SiaT22: sialyltransferase of Streptococcus entericus, acc. WP_018369230, SEQ ID NO: 13 (protein, listed as Streptococcus entericus) MKKVYFCHTVYHLLITLCKISVEEQVEIIVFDTVSNHELIVQKIRDVFVNTTVLFAEQNTDFSILEIDRATDIYVFNDWTPIGAYLRKNKLFYHLIEDGYNYHEYNVYANALTMKRRLLNFVLRREEPSGFSRYVRSIEVNRVKYLPNDCRKSKWVEKPRSALFENLVPEHKQKIITIFGLENYQDSLRGVLVLTQPLVQDYWDRDITTEEEQLEFYRQIVESYGEGEQVFFKIHPRDKVDYSSLTNVIFLKKNVPMEVYELIADCHFTKGITHSSTALDFLSCVDKKITLKQMKANS ?
RESULT: 3′-SL
